From: paper PMC10397247

assayedTarget: T1, P3A-bS
T1 chain: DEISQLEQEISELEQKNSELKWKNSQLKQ
assayRemarks: two-hybrid library CCNG1;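 also: natural log of median RNA to DNA barcode read ratio; higher means stronger binding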
Classify: Criterion met when interaction score is strictly less than -0.7; Criterion not met when interaction score is not.

binder="DEISQLEQENSELEQENSELEWEISQLEQ [P1A-bS]" discretelabel="Criterion not met"
binder="DKISQLKQKNSELKQKNSELKWKISQLKQ [P2A-bS]" discretelabel="Criterion met"
binder="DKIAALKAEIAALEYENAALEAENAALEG [O11]" discretelabel="Criterion not met"
binder="DEISQLEQEISELEQKNSELKWKNSQLKQ [P3A-bS]" discretelabel="Criterion met"
binder="DKNSQLKQKISELKQKISELKWENSQLEQ [P12A-bS]" discretelabel="Criterion met"

# input for lookup
Lab log: compare recorded interaction score with -0.7; is it strictly lower for DENSQLEQEISELEQEISELEWKNSQLKQ [P11A-bS] ?
Criterion not met
